Sourced from PubChem BioAssay (NCI)

# TGI per record follows
# System: MDA-N
# PROTOCOL: NCI tumour cell line growth inhibition, 48 h

| COMPOUND | TGI |
| --- | --- |
| CC1(O)C(=O)OC2CC([C@]3(O)CCC4[C@@H]5C[C@H]6O[C@]67[C@@H](O)C=CC(=O)[C@]7(C)C5CC[C@@]43C)C1(C)C2 (stereo partly drawn) | 17.9 µM |
| Oc1ccc2ccccc2c1OCc1nnc(CCCCCCCCc2nnc(COc3c(O)ccc4ccccc34)o2)o1 | > 100 µM |
| COc1cc(-c2[o+]c3cc(O)cc(OC4OC(CO)C(O)C(O)C4O)c3cc2OC2OC(CO)C(O)C(O)C2O)cc(OC)c1O (stereo not drawn) | > 100 µM |
| COc1ccc(NS(=O)c2cccc(C)c2)cc1 (stereo not drawn) | > 100 µM |
| O=C(Nc1nc(C23CC4CC(CC(C4)C2)C3)cs1)c1cc2cc([N+](=O)[O-])ccc2oc1=O | > 100 µM |
| CCOC(=O)c1cc(-c2ccn(C(C)=O)c2)c(-c2cc(C)co2)[nH]1 | > 100 µM |
| CCCCCCCCC[n+]1cccc(C2C(C(=O)OCC)=C(C)NC(C)=C2C(=O)OCC)c1 | 4.39 µM |

Here is another compound to look at.
Lab book: TGI of CCOC(=O)CCC(C(=O)OCC)n1nnc2cc(Nc3c(C)[n+]([O-])c4ccc(Cl)cc4[n+]3[O-])ccc21 (stereo not drawn) noted as > 100 µM

====

# Tested on: SNB-19 CNS
# PROTOCOL: NCI tumour cell line growth inhibition, 48 h; in the data active means GI50 below about 0.43 µM; inactive means the rest
Parameter call: string, one of active, inactive

Example results:
| STRUCTURE AS SMILES | TARGET OR SYSTEM | CLASSIFICATION |
| --- | --- | --- |
| Cc1cc(Cl)ccc1NC(=O)NC(C)(C)COC(=O)Nc1cccc(Cl)c1 | SNB-19 CNS | inactive |
| NC(=S)N/N=C\c1nccc2c(C(F)(F)C(F)(F)C(F)(F)F)cccc12 | SNB-19 CNS | active |
| CC(=O)O[C@H](C[C@H](C(C)C)N(C)C(=O)[C@@H](NC(=O)[C@H]1CCCCN1C)C(C)(C)C)c1nc(C(=O)N[C@@H](Cc2ccccc2)C[C@H](C)C(=O)O)cs1 | SNB-19 CNS | active |
| COc1ccc(S(=O)(=O)n2c3ccccc3n3ncc(-c4nnc(C)o4)c23)cc1 | SNB-19 CNS | inactive |

We now examine a further compound.
IN: Kindly provide the recorded test outcome for the following compound: "C(#Cc1ccccc1C#Cc1ccccn1)c1ccccn1"
OUT: inactive

====

# Tested on: LXFL 529 NSCLC
# PROTOCOL: NCI tumour cell line growth inhibition, 48 h
VALUE TYPE: TGI

These recorded examples may help you get a feel for the data.
| COMPOUND | TGI |
| --- | --- |
| O=C(Nc1ccccc1C(=O)O)C(=O)C(C(=O)c1ccccc1-c1ccccc1)C1OC(=O)c2ccccc21 (stereo not drawn) | 28 µM |
| COC(=O)C12C3C4C1C1C2C3C41C(=O)N(C(C)C)C(C)C (stereo not drawn) | > 100 µM |
| CC(=O)OCC(OC(C)=O)C(OC(C)=O)C(OC(C)=O)C(=O)CNn1c(-c2ccccc2Cl)nc2ccc(Br)cc2c1=O (stereo not drawn) | > 100 µM |
| CNC(C)Cc1ccc(O)cc1 (stereo not drawn) | > 100 µM |
| CCC1(CC)C(=O)[N-]C(=O)[N-]C1=O.[Au+].[Au+].c1ccc([PH+](c2ccccc2)c2ccccc2)cc1.c1ccc([PH+](c2ccccc2)c2ccccc2)cc1 | 0.323 µM |

Noted for "N[C@H](C(=O)O)[C@@H](Cl)CC(=O)O" : its TGI reads > 100 µM

For reference, reported TGI for "O=c1cccccc1NCCNc1cccccc1=O" stands at > 100 µM

Please fill in: TGI reported for "COc1cc(C(=O)C/C(CCC(=O)Nc2ccc(Cl)cc2Cl)=N/Nc2nnc(C)n2N)ccc1O" = > 100 µM

For record "CC(=O)Nc1ccc(/C=C(\NC(=O)c2ccccc2)C(=O)NNS(=O)(=O)c2ccc(C)cc2)cc1" the listed TGI is > 100 µM

====

# Tested on: MDA-MB-231 breast
# PROTOCOL: NCI tumour cell line growth inhibition, 48 h; in the data active = GI50 below about 0.43 µM; inactive = the rest
# output must be one of Yes for active, No for inactive

| STRUCTURE AS SMILES | CLASSIFICATION |
| --- | --- |
| c1cc2ccc1CNCCN1CCNCc3ccc(cc3)Oc3ccc(cc3)CNCCN(CCNCc3ccc(cc3)O2)CCNCc2ccc(cc2)Oc2ccc(cc2)CNCC1 | No |
| O[C@H](CN1CC1)[C@@H](O)CN1CC1 | No |
| CC1(C)N=C(N)N=C(N)N1c1ccc(OCCCCNC(=O)c2ccc(S(=O)(=O)F)cc2)c(Cl)c1 | No |
| C=C1C[C@@H]2[C@H](CC[C@]3(C)C(=O)CC[C@@H]23)[C@@]2(C)C=CC(=O)C=C12 | No |
| Cc1ccc(/C=C2\CN(Cc3cn(CCNc4ccnc5cc(Cl)ccc45)nn3)C/C(=C\c3ccc(C)cc3)C2=O)cc1 | No |

IN: Entry "C=C(C)[C@@H]1CC[C@]2(C)[C@H](CC=C3[C@@H]4[C@H](C)[C@@H](C)CC[C@]4(CO)CC[C@]32C)[C@@]1(C)CCCN" : call = ?
OUT: No

IN: Which result was noted for this compound in the test: "Cc1[nH]n(-c2ccccc2)c(=O)c1C(=O)c1ccccc1"
OUT: No

IN: # fetch the recorded call for "COc1cc(/C=C/c2cc(/C=C/c3ccc(O)c(OC)c3)[nH]c(=O)n2)ccc1O" here
OUT: No

IN: What did this assay record as the result for "O=[N+]([O-])c1ccc(NC(=S)N/N=C(\c2ccccc2)c2ccccn2)cc1" ?
OUT: Yes

====

Listed here are compounds together with their documented log10 of TGI.
# System: SK-MEL-2 melanoma
# PROTOCOL: NCI tumour cell line growth inhibition, 48 h
Form field - Quantity: TGI; Unit: µM; Scale: log10

Example results:
| COMPOUND | TARGET OR SYSTEM | log10 of TGI |
| --- | --- | --- |
| O=c1/c(=C/c2ccc(-c3ccc(Cl)cc3Cl)o2)sc2n1[C@@H](c1ccc3c(c1)OCO3)C=C(c1cc(F)c(Cl)cc1Cl)N=2 | SK-MEL-2 melanoma | 1.85 |
| Cc1ccc(S(=O)(=O)N2CCN(CCO)CCN(S(=O)(=O)c3ccc(C)cc3)CCN(CCO)CC2)cc1 | SK-MEL-2 melanoma | 1.55 |
| COC(=O)C1=C(C)NC2(C)OC(C)(O)C(C(C)=O)C12C(C)=O (stereo not given) | SK-MEL-2 melanoma | 1.74 |
| NC(=S)N/N=C\c1nccc2c(C(F)(F)C(F)(F)C(F)(F)F)cccc12 | SK-MEL-2 melanoma | 0.51 |

Next item in the queue.
Field log10 of TGI (SK-MEL-2 melanoma), entry "O=C(Nc1cccc([N+](=O)[O-])c1)c1cc2ccccc2cc1O" : 0.45

====

# System: SF-539 CNS
# PROTOCOL: NCI tumour cell line growth inhibition, 48 h
VALUE TYPE: TGI

| MOLECULE | VALUE TYPE | REPORTED VALUE |
| --- | --- | --- |
| Cc1nn(-c2ccccn2)c2c1C(SC#N)=C(C=O)CC2 | TGI | 36.1 µM |
| CN(C)C=Nc1nncc2n[nH]nc12 | TGI | > 100 µM |
| O=c1/c(=C/c2ccc(-c3ccc(Cl)cc3Cl)o2)sc2n1[C@@H](c1ccc3c(c1)OCO3)C=C(c1cc(F)c(Cl)cc1Cl)N=2 | TGI | > 100 µM |

Short answer for "CN(CCN(C)C(=O)CCn1ccc(=O)[nH]c1=O)C(=O)CCn1ccc(=O)[nH]c1=O" : TGI was > 100 µM

Entry under test: "O=C(/C=C/c1ccccc1)CCc1c(O)c2ccccc2oc1=O" . Its TGI was > 100 µM

Reported TGI for C[C@H]1CCC/C=C/[C@@H]2C[C@H](O)C[C@H]2[C@H](O)[C@@H](SC2OC(CO)C(O)C(O)C2O)CC(=O)O1 (stereo not given in full) was > 100 µM

For this molecule ( CCC(=O)OC1=CN2C(=NC(c3ccc(N)cc3)=CC2c2cc(OC)c(OC)c(OC)c2)S1 (stereo not given) ), measured TGI is 6.01 µM

The reported TGI of the molecule C[C@@H]1OCC(O)C([C@H]2OC(c3ccccc3)=N[C@H]2CO)O1 (stereo not given in full) was > 100 µM

Documented TGI of "CCCCN(CCCC)C(=O)C(=O)CC(=O)/C=C/c1ccccc1" : > 100 µM

Entry under test: "CC(=O)Nc1ccc(/C=C(\NC(=O)c2ccccc2)C(=O)NNS(=O)(=O)c2ccc(C)cc2)cc1" . Its TGI was > 100 µM
